Biological target: T1, VEGFR-3-Fc (UniProt P35916 25-328)
T1 construct: domain: first three Ig domains; conditioned supernatant of 293T cells; also called VEGFR-3-Fc fusion protein; not shown: Fc fragment of the pIg vector
T1 sequence (looked up): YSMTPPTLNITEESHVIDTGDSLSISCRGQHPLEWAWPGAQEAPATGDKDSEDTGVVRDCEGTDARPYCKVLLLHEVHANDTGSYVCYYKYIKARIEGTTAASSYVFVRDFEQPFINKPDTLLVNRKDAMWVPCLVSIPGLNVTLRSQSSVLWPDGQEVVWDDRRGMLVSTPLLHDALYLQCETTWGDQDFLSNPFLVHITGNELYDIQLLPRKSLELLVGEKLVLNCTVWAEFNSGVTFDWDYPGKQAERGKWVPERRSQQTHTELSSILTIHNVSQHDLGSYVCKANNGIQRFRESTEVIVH
Test: receptor-Fc IP
Description: The binding assay procedure was identical to the immunoprecipitation using pentahistidine antibody described in Example 2, apart from the composition of the immunoprecipitation (IP) mixes. […]

| binder | binding result |
| --- | --- |
| 64-8 (ligand) GQNHHEVVKFMDVYQRSYCHPREVCIDVGKEFGVATNTFFKPSCVPLMRCGGCCNSEGLQCMNTSTSYLSKTLFEIKPHQGQHIGEMSFANHTSCRCMSKLD | no binding |
| 73-1 (ligand) GQNHHEVVKSIDNEWRKTQCMPREVCIDVGKEYPDEIEYIFKPPCVSVYRCGGCCNDEGLECVPTEESNITMQIMRIKPHQGQHIGEMSFLQHNKCECRPKKD | no binding |
| 13-9 (ligand) GQNHHEVVKFMDVYQRSYCHPIETLVDIFQEYPDEIEYIFKPPCVSVYRCGGCCNDEGLECVPTEESNITMQIMRITVPLSQGPKPVTISFLQHNKCECRPKKD | no binding |
| 52-3 (ligand) AHYNTEILKSIDNEWRKTQCMPIETLVDIFQEFGVATNTFFKPPCVSVYRCGGCCNSEGLQCVPTEESNITMQIMRIKPHQGQHIGEMSFLQHNKCECRPKKD | no binding |
| 61-5 (ligand) GQNHHEVVKFMDVYQRSYCHPREVCIDVGKEYPDEIEYIFKPSCVPLMRCGGCCNDEGLECVPTEESNITMQIMRIKPHQGQHIGEMSFANHTSCRCMSKLD | no binding |
| 32-3 (ligand) GQNHHEVVKSIDNEWRKTQCMPIETLVDIFQEFGVATNTFFKPPCVSVYRCGGCCNSEGLQCVPTEESNITMQIMRIKPHQGQHIGEMSFLQHNKCECRPKKD | no binding |
| 22-5 (ligand) AHYNTEILKSIDNEWRKTQCMPREVCIDVGKEFGVATNTFFKPPCVSVYRCGGCCNDEGLECVPTEESNITMQIMRIKPHQGQHIGEMSFANHTSCRCMSKLD | no binding |
| 74-4 (ligand) GQNHHEVVKSIDNEWRKTQCMPREVCIDVGKEFGVATNTFFKPSCVPLMRCGGCCNSEGLQCMNTSTSYLSKTLFEIKPHQGQHIGEMSFLQHNKCECRPKKD | no binding |
| 82-9 (ligand, clone entry) AHYNTEILKFMDVYQRSYCHPIETLVDIFQEFGVATNTFFKPPCVSVYRCGGCCNDEGLECVPTEESNITMQIMRITVPLSQGPKPVTISFLQHNKCECRPKKDL | binds |
| 81-13 (ligand) AHYNTEILKFMDVYQRSYCHPIETLVDIFQEYPDEIEYIFKPSCVPLMRCGGCCNDEGLECVPTEESNITMQIMRITVPLSQGPKPVTISFANHTSCRCMSKLD | no binding |
| 24-3 (ligand) AHYNTEILKSIDNEWRKTQCMPREVCIDVGKEFGVATNTFFKPSCVPLMRCGGCCNSEGLQCVPTEESNITMQIMRIKPHQGQHIGEMSFLQHNKCECRPKKD | no binding |
| 23-9 (ligand) AHYNTEILKSIDNEWRKTQCMPREVCIDVGKEYPDEIEYIFKPPCVSVYRCGGCCNDEGLECVPTEESNITMQIMRITVPLSQGPKPVTISFLQHNKCECRPKKD | no binding |
| 72-8 (ligand) GQNHHEVVKSIDNEWRKTQCMPREVCIDVGKEFGVATNTFFKPPCVSVYRCGGCCNSEGLQCMNTSTSYLSKTLFEIKPHQGQHIGEMSFANHTSCRCMSKLD | binds |
| 71-16 (ligand) GQNHHEVVKSIDNEWRKTQCMPREVCIDVGKEYPDEIEYIFKPSCVPLMRCGGCCNSEGLQCMNTSTSYLSKTLFEITVPLSQGPKPVTISFANHTSCRCMSKLD | no binding |
| 22-14 (ligand) AHYNTEILKSIDNEWRKTQCMPREVCIDVGKEFGVATNTFFKPPCVSVYRCGGCCNDEGLECMNTSTSYLSKTLFEITVPLSQGPKPVTISFANHTSCRCMSKLD | binds |
| 34-13 (ligand) GQNHHEVVKSIDNEWRKTQCMPIETLVDIFQEFGVATNTFFKPSCVPLMRCGGCCNDEGLECVPTEESNITMQIMRITVPLSQGPKPVTISFANHTSCRCMSKLD | no binding |
